Source: PubChem BioAssay

- Protocol Description: inhibitors of TNFa-induced NFkB p65 translocation, primary screen, imaging, HUVEC, MLSMR starter and 10KST1 sets (AID 438);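 further: compound added about 3h40 before a 20 min TNFalpha stimulation; signal is the nuclear over cytoplasmic p65 intensity ratio per well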
- Assay Setup: HUVEC TNFa-induced p65 nuclear translocation; at 2 µM, active compounds read high, 0% TNFa-plus-vehicle, 100% no-TNFa wells
The entries below are paired with their reported inhibition.

{"columns": ["Compound", "inhibition, %"],
 "data": [
  ["CCOC(=O)/C(C#N)=C1\\Nc2ccccc2N=C1N(CC(C)C)CC(C)C", -7.3],
  ["O=C(O)CC1SC(=Nc2cccc(C(F)(F)F)c2)NC1=O (stereo not drawn)", -2.2],
  ["CCOC(=O)CCc1c(C)c(C#N)c2nc3ccccc3n2c1-n1ccnc1", -4.6],
  ["Cn1c(Cl)cnc1C1CC(=O)c2cc(Cl)ccc2O1 (stereo not drawn)", -11.8],
  ["O=C(c1ccccc1)C(CCC(CN1CCOCC1)C(=O)c1ccccc1)CN1CCOCC1 (stereo not drawn)", -0.1],
  ["COC(=O)c1cc(S(=O)(=O)N2CCOCC2)c(N2CCOCC2)cc1N1CCOCC1", -5.9],
  ["N#Cc1ccc(-c2cccnc2)nc1SCC(=O)Nc1sc2c(c1C#N)CCC2", -25.4],
  ["CCCc1[nH]nc2c1C(c1cccc(OC)c1)C(C#N)=C(N)O2 (stereo not drawn)", -18],
  ["CCN(CCCc1ccccc1)CCCc1ccccc1", -10.9],
  ["CN=c1sc2ccccc2n1CC(O)COCc1ccco1 (stereo not drawn)", 0.4],
  ["Nc1ncnc2c1ncn2[C@@H]1O[C@H](CO)[C@@H](O)[C@H]1O", -1.7],
  ["CCOc1ccc(Br)cc1CC(=O)O", -20.4],
  ["Cc1nc(Nc2ncc3c(n2)CC(C)(C)CC3=O)nc2ccccc12", -10.9]
]}
